System: normal human ectocervical epithelial cells
Experiment: MTT cell viability assay, ectocervical epithelial cells
Type: cell-based
Details: 3 h exposure, MTT, read-out: IC50[MTT] ectocervical epithelial cells
For each of the compounds below, state its IC50.

q: Consider the compound shown here: `Fc1ccccc1CCNC(=S)Nc1ccc(Br)cn1` What is its recorded IC50?
a: > 1 mM

q: Let us now turn to `S=C(NCCc1ccccc1Cl)Nc1ccc(Br)cn1`
a: > 1 mM

q: Another compound to look at: `S=C(NCCc1ccccn1)Nc1ccccn1`
a: > 1 mM

* * *

Target: purified recombinant HIV-1 RT (Human immunodeficiency virus type 1 group M subtype B)
Construct: purified recombinant HIV-1 RT
Experiment: cell-free Quan-T-RT RT inhibition assay (scintillation proximity)
Format: biochemical
Conditions: IC50 [rRT], purified recombinant HIV-1 RT, cell-free
Would you kindly list pIC50 for each of these compounds?
Lab note — pIC50 values are minus log10 of concentrations in M.

q: Item `S=C(NCCc1ccccc1Cl)Nc1ccc(Br)cn1` has what recorded pIC50?
a: 6.15

q: And the next one, `Cc1ccc(CCNC(=S)Nc2ccc(Br)cn2)cc1` ?
a: 6.15

q: And what about the compound `S=C(NCCc1ccccc1)Nc1ccc(Br)cn1` ?
a: 5.90

q: Try the compound `S=C(NCCc1ccc(Br)cc1)Nc1ccc(Br)cn1`
a: 6.05

q: What would you report for `Fc1cccc(CCNC(=S)Nc2ccc(Br)cn2)c1` ?
a: 6.15

q: Could you do the same for `COc1ccccc1CCNC(=S)Nc1ccc(Br)cn1` , please?
a: 6.00

* * *

Assay: partition coefficient n-octanol/water (Pa)
Type: physicochemical
Conditions: UV absorption
readoutName: Pa, Partition coefficient
Would you mind answering with just the numeric figure?

q: // query Pa, Partition coefficient value for entry `S=C(NCCc1ccccc1Cl)Nc1ccc(Br)cn1`
a: 1.04

q: Request: `S=C(NCCc1cccc(Cl)c1)Nc1ccc(Br)cn1`
a: 6.20

q: Same thing, different molecule: `S=C(NCCC1=CCCCC1)Nc1ccc(Cl)cn1`
a: 6.3

q: Next record, please: `S=C(NCCc1ccc(Br)cc1)Nc1ccc(Br)cn1`
a: 4.16

q: Here is the next molecule: `COc1ccc(OC)c(CCNC(=S)Nc2ccc(Br)cn2)c1`
a: 1.78

q: Also `FC(F)(F)c1ccc(NC(=S)NCCc2ccccn2)nc1` ?
a: 3.81

q: Query `Fc1ccc(CCNC(=S)Nc2ccc(Br)cn2)cc1` next
a: 10.7

q: Cool, now CC1(C)C2CCC(CNC(=S)Nc3ccc(Br)cn3)C1C2 (stereo not shown)
a: 2.1

q: What do you get for `S=C(NCCc1ccccn1)Nc1ccccn1` ?
a: 2.32

q: Please give the result for `S=C(NCCc1ccc(Cl)cc1)Nc1ccc(Br)cn1` too.
a: 2.23

q: Same for `Fc1ccccc1CCNC(=S)Nc1ccc(Br)cn1`
a: 1.20

q: How about this molecule: `COc1cccc(CCNC(=S)Nc2ccc(Br)cn2)c1`
a: 1.07

q: Also check `Fc1ccccc1CCNC(=S)Nc1ccc(C(F)(F)F)cn1`
a: 5.13

q: Next: `S=C(NCCN1CCCC1)Nc1ccc(Br)cn1`
a: 7.91

q: Param item: `COc1ccc(CCNC(=S)Nc2ccc(Br)cn2)cc1OC`
a: 22.7

q: Moving on to the next molecule: `S=C(NCCN1CCNCC1)Nc1ccc(Br)cn1`
a: 5.92

q: Then `Cc1ccc(CCNC(=S)Nc2ccc(Br)cn2)cc1` ?
a: 1.49

q: Same thing, different molecule: `S=C(NCCc1ccccc1)Nc1ccc(Br)cn1`
a: 3.50

q: `COc1ccccc1CCNC(=S)Nc1ccc(Br)cn1` , same question.
a: 3.79

q: Likewise for `FC(F)(F)c1ccc(NC(=S)NCCC2=CCCCC2)nc1` ?
a: 11.5

q: Now the molecule `Fc1cccc(CCNC(=S)Nc2ccc(Br)cn2)c1`
a: 1.51

q: Follow-up entry: `Oc1ccc(CCNC(=S)Nc2ccc(Br)cn2)cc1`
a: 2.93

Source listed as patent US6774139B1.
